Entries annotated with measured MIC
- System: Pseudomonas aeruginosa (IMP-18)
- protocol-text: Broth microdilution antibiotic susceptibility (MicroScan dehydrated panels, NCCLS criteria)
- Type: cell-based
- assay-setup: Pseudomonas aeruginosa; carbapenem-resistant P. aeruginosa clinical isolate producing IMP-18; broth microdilution; read-out: Microdilution MICs

CN(C)c1ccc(O)c2c1C[C@H]1C[C@H]3[C@H](N(C)C)C(O)=C(C(N)=O)C(=O)[C@@]3(O)C(O)=C1C2=O [Minocycline]    > 128 mg/L
C[C@H]1COc2c(N3CCN(C)CC3)c(F)cc3c(=O)c(C(=O)O)cn1c23 [Levofloxacin]    > 16 mg/L
NCC[C@H](O)C(=O)N[C@@H]1C[C@H](N)[C@@H](O[C@H]2O[C@H](CN)[C@@H](O)[C@H](O)[C@H]2O)[C@H](O)[C@H]1O[C@H]1O[C@H](CO)[C@@H](O)[C@H](N)[C@H]1O [Amikacin]    64 mg/L

Ask | Please provide the recorded MIC for C[C@H]1[C@H](NC(=O)/C(=N\OC(C)(C)C(=O)O)c2csc(N)n2)C(=O)N1S(=O)(=O)O [Aztreonam] , tested on Pseudomonas aeruginosa (IMP-18).
Reply | 32 mg/L

Ask | Please provide the recorded MIC for CO/N=C(\C(=O)N[C@@H]1C(=O)N2C(C(=O)O)=C(CSc3nc(=O)c(=O)[nH]n3C)CS[C@H]12)c1csc(N)n1 [Ceftriaxone] , tested on Pseudomonas aeruginosa (IMP-18).
Reply | > 64 mg/L

Ask | Please provide the recorded MIC for C[C@@H](O)[C@H]1C(=O)N2C(C(=O)O)=C(SCCN=CN)C[C@H]12 [Imipenem] , tested on Pseudomonas aeruginosa (IMP-18).
Reply | 64 mg/L

Ask | Please provide the recorded MIC for CO/N=C(\C(=O)N[C@@H]1C(=O)N2C(C(=O)[O-])=C(C[N+]3(C)CCCC3)CS[C@H]12)c1csc(N)n1 [Cefepime] , tested on Pseudomonas aeruginosa (IMP-18).
Reply | > 64 mg/L

Ask | Please provide the recorded MIC for CC(C)(O/N=C(\C(=O)N[C@@H]1C(=O)N2C(C(=O)[O-])=C(C[n+]3ccccc3)CS[C@H]12)c1csc(N)n1)C(=O)O [Ceftazidime] , tested on Pseudomonas aeruginosa (IMP-18).
Reply | > 64 mg/L
